Origin of values: patent US20240018502A1

Listed binders paired with reported PAR-2 Cell Based Assay ED50
Target: proteinase-activated receptor 2 (PAR-2) (UniProt P55085)
Sequence (P55085 37-397 limits assumed): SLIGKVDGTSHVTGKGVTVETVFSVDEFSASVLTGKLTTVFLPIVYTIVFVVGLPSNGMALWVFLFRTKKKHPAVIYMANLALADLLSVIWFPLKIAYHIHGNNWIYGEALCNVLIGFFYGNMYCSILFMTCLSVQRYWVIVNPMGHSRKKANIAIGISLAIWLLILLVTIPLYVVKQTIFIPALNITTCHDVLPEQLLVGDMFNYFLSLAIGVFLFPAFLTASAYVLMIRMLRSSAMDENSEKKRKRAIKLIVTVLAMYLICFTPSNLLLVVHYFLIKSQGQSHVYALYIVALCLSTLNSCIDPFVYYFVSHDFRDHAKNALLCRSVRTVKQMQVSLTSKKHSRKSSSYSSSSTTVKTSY
Test: cell-based or functional assay

binder: Wild-type MTSP-1 protease domain with C122S (enzyme) VVGGTDADEGEWPWQVSLHALGQGHICGASLISPNWLVSAAHCYIDDRGFRYSDPTQWTAFLGLHDQSQRSAPGVQERRLKRIISHPFFNDFTFDYDIALLELEKPAEYSSMVRPISLPDASHVFPAGKAIWVTGWGHTQYGGTGALILQKGEIRVINQTTCENLLPQQITPRMMCVGFLSGGVDSCQGDSGGPLSSVEADGRIFQAGVVSWGDGCAQRNKPGVYTRLPLFRDWIKENTGV
PAR-2 Cell Based Assay ED50 / nM: 1.4

binder: Q38H/I41A/D60bV/F60eR/Y60gW/D96I/F97N/T98G/F99L/C122S/G151N/Q175L/Q192D (enzyme) VVGGTDADEGEWPWQVSLHALGHGHACGASLISPNWLVSAAHCYIDVRGRRWSDPTQWTAFLGLHDQSQRSAPGVQERRLKRIISHPFFNINGLDYDIALLELEKPAEYSSMVRPISLPDASHVFPAGKAIWVTGWGHTQYGGTNALILQKGEIRVINQTTCENLLPQLITPRMMCVGFLSGGVDSCDGDSGGPLSSVEADGRIFQAGVVSWGDGCAQRNKPGVYTRLPLFRDWIKENTGV
PAR-2 Cell Based Assay ED50 / nM: 150
